Values from patent US6872805B2

- TARGET UNDER TEST: HCV NS3/4A protease complex (Hepatitis C virus genotype 1a, UniProt P27958, C1454S/C1711G)
- Sequence (P27958 1027-1711, stated change not applied): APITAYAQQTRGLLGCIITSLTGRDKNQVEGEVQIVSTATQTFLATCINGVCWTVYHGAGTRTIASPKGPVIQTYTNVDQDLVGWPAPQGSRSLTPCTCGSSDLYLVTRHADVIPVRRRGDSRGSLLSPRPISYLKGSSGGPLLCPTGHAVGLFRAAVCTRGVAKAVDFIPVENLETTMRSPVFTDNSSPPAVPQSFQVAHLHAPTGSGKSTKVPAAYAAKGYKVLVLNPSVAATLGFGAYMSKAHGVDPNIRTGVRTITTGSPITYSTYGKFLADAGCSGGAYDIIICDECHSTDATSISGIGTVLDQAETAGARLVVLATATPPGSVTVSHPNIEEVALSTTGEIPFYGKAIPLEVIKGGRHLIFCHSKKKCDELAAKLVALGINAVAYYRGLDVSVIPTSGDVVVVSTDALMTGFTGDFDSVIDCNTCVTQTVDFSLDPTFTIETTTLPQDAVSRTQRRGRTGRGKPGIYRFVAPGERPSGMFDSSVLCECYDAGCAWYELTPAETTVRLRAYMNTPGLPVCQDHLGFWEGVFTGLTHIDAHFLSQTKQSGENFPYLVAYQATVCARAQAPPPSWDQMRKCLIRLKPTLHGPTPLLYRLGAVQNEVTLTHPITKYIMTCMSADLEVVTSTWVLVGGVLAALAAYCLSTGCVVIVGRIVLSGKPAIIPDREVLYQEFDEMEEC
- Sequence (P27958 1027-1711, stated change not applied): as above
- PROTOCOL: Recombinant HCV NS3/4A protease complex FRET peptide assay (strain not stated)
- Type: biochemical
- CONDITION DETAILS: IC50, NS3/4A protease enzyme assay, strain not stated; activity ranges
pIC50: −log10 of the molar value.

{"columns": ["COMPOUND", "pIC50"],
 "data": [
  ["C=CC1C[C@]1(NC(=O)[C@@H]1C[C@@H](Oc2cc(-c3ccccc3)nc3cc(OC)ccc23)CN1C(=O)[C@@H](NC(=O)OC(C)(C)C)C(C)(C)C)C(=O)NS(=O)(=O)c1ccc(OC(F)(F)F)cc1 (some centres unmarked) [Compound 66]", "> 6.30"],
  ["CCC(C)[C@H](NC(=O)OC(C)(C)C)C(=O)N1C[C@H](Oc2cc(-c3ccccc3)nc3cc(OC)ccc23)C[C@H]1C(=O)NC1(C(=O)NS(=O)(=O)C2CC2)CC12CCC2 (some centres unmarked) [Compound 137]", "> 5.30"],
  ["C=C[C@@H]1C[C@]1(NC(=O)C1C[C@@H](Oc2cc(-c3ccccc3)nc3cc(OC)ccc23)CN1C(=O)[C@@H](NC(=O)COC)C(C)(C)C)C(=O)NS(=O)(=O)C1CC1 (some centres unmarked) [Compound 107]", "> 7.30"],
  ["C=CC1CC1(NC(=O)[C@@H]1C[C@@H](Oc2cc(-c3ccccc3)nc3cc(OC)ccc23)CN1C(=O)[C@H](CC(C)C)NC(=O)OC(C)(C)C)C(=O)NS(C)(=O)=O (some centres unmarked) [Compound 90]", "> 6.30"],
  ["COc1ccc2c(O[C@@H]3C[C@@H](C(=O)NC4(C(=O)NS(=O)(=O)C5CC5)CCC4)N(C(=O)[C@@H](NC(=O)OC(C)(C)C)C(C)(C)C)C3)cc(-c3ccccc3)nc2c1 [Compound 22]", "> 7.30"]
]}

###

- TARGET UNDER TEST: HCV NS3/4A protease complex (Hepatitis C virus genotype 1a, UniProt P27958, C1454S/C1711G)
- PROTOCOL: Recombinant HCV NS3/4A protease complex FRET peptide assay (strain not stated)
- Type: biochemical
- CONDITION DETAILS: IC50, NS3/4A protease enzyme assay, strain not stated; activity ranges
pIC50: −log10 of the molar value.

{"columns": ["MOLECULE", "pIC50"],
 "data": [
  ["C=C1C[C@]1(NC(=O)[C@@H]1C[C@@H](Oc2cc(-c3ccccc3)nc3cc(OC)ccc23)CN1C(=O)C(NC(=O)OC(C)(C)C)C(C)(C)C)C(=O)NS(=O)(=O)c1ccccc1C(F)(F)F (stereo partly drawn) [Compound 47]", "> 7.30"],
  ["C=CC1CC1(NC(=O)[C@@H]1C[C@@H](Oc2cc(-c3ccccc3)nc3cc(OC)ccc23)CN1C(=O)[C@@H](NC(=O)OC(C)(C)C)C(C)C)C(=O)NS(C)(=O)=O (stereo partly drawn) [Compound 89]", "> 6.30"],
  ["C=CC1C[C@]1(NC(=O)[C@@H]1C[C@@H](Oc2cc(-c3ccccc3)nc3cc(OC)ccc23)CN1C(=O)[C@@H](NC(=O)OC(C)(C)C)C1CCCC1)C(=O)NS(=O)(=O)C(C)C (stereo partly drawn) [Compound 30]", "> 7.30"]
]}

###

- TARGET UNDER TEST: bovine pancreatic α-chymotrypsin (Bos taurus)
pIC50: −log10 of the molar value.

{"columns": ["MOLECULE", "pIC50"],
 "data": [
  ["C=CC1C[C@]1(NC(=O)[C@@H]1C[C@@H](Oc2cc(-c3ccccc3)nc3cc(OC)ccc23)CN1C(=O)C(NC(=O)OC(C)(C)C)C(C)(C)C)C(=O)NS(=O)(=O)c1ccc(NC(C)=O)cc1 (stereo partly shown)", "< 4.00"]
]}

###

- System: HCV replicon in Huh7 cells
- PROTOCOL: HCV replicon cell-based assay
- Design: species or system HCV strain 1B
- CONDITION DETAILS: Hepatitis C virus, Huh-7, 96 h; HCV replicon, Huh7 cells, 4 days; activity ranges; read-out: EC50
MEASURED METRIC: EC50

{"columns": ["MOLECULE", "TARGET UNDER TEST", "READOUT VALUE"],
 "data": [
  ["C=CC1CC1(NC(=O)[C@@H]1C[C@@H](Oc2cc(-c3ccccc3)nc3cc(OC)ccc23)CN1C(=O)[C@@H](NC(=O)OC(C)(C)C)C(C)(C)C)C(=O)NS(=O)(=O)C1CC1 (some centres unmarked)", "HCV replicon in Huh7 cells", "< 50 nM"],
  ["C=CCC[C@](C)(NC(=O)[C@@H]1C[C@@H](Oc2cc(-c3ccccc3)nc3cc(OC)ccc23)CN1C(=O)C(NC(=O)OC(C)(C)C)C(C)(C)C)C(=O)NS(=O)(=O)c1ccccc1Cl (some centres unmarked)", "HCV replicon in Huh7 cells", "< 500 nM"],
  ["C=C[C@@H]1C[C@]1(NC(=O)C1C[C@@H](Oc2cc(-c3ccccc3)nc3cc(OC)ccc23)CN1C(=O)[C@@H](NC(=O)C(C)(C)C)C(C)(C)C)C(=O)NS(=O)(=O)C1CC1 (some centres unmarked)", "HCV replicon in Huh7 cells", "< 500 nM"],
  ["C=C[C@@H]1C[C@]1(NC(=O)C1CC(Oc2cc(-c3ccccc3)nc3cc(OC)ccc23)CN1C(=O)[C@@H](NS(=O)(=O)C1CC1)C(C)(C)C)C(=O)NS(=O)(=O)C1CC1 (some centres unmarked)", "HCV replicon in Huh7 cells", "< 500 nM"],
  ["C=CCC[C@](C)(NC(=O)[C@@H]1C[C@@H](Oc2cc(-c3ccccc3)nc3cc(OC)ccc23)CN1C(=O)C(NC(=O)OC(C)(C)C)C(C)(C)C)C(=O)NS(=O)(=O)c1ccc(C)cc1 (some centres unmarked)", "HCV replicon in Huh7 cells", "< 50 nM"]
]}

###

- TARGET UNDER TEST: HCV NS3/4A protease complex (Hepatitis C virus genotype 1a, UniProt P27958, C1454S/C1711G)
- PROTOCOL: Recombinant HCV NS3/4A protease complex FRET peptide assay (strain not stated)
- Format: biochemical
- CONDITION DETAILS: IC50, NS3/4A protease enzyme assay, strain not stated; activity ranges

{"columns": ["MOLECULE", "IC50"],
 "data": [
  ["CCC1CC1(NC(=O)[C@@H]1C[C@@H](Oc2cc(-c3ccccc3)nc3cc(OC)ccc23)CN1C(=O)[C@H](CC1CCCCC1)NC(=O)OC(C)(C)C)C(=O)NS(C)(=O)=O (some centres unmarked) [Compound 74]", "< 5000 nM"],
  ["C=CCC[C@](C)(NC(=O)[C@@H]1C[C@@H](Oc2cc(-c3ccccc3)nc3cc(OC)ccc23)CN1C(=O)C(NC(=O)OC(C)(C)C)C(C)(C)C)C(=O)NS(=O)(=O)c1ccc(F)c(Cl)c1 (some centres unmarked)", "< 50 nM"],
  ["C=CCC[C@](C)(NC(=O)[C@@H]1C[C@@H](Oc2cc(-c3ccccc3)nc3cc(OC)ccc23)CN1C(=O)C(NC(=O)OC(C)(C)C)C(C)(C)C)C(=O)NS(=O)(=O)c1cccc(C#N)c1 (some centres unmarked)", "< 50 nM"],
  ["C=CCC[C@](C)(NC(=O)[C@@H]1C[C@@H](Oc2cc(-c3ccccc3)nc3cc(OC)ccc23)CN1C(=O)C(NC(=O)OC(C)(C)C)C(C)(C)C)C(=O)NS(=O)(=O)c1cccc(C)c1 (some centres unmarked)", "< 50 nM"],
  ["C=CC1CC1(NC(=O)C1CC(Oc2cc(-c3ccccc3)nc3cc(OC)ccc23)CN1C(=O)C(NC(=O)C1C2CC1C2)C(C)(C)C)C(=O)NS(=O)(=O)C1CC1 (centres unmarked)", "< 50 nM"]
]}

###

- TARGET UNDER TEST: HCV NS3/4A protease complex (Hepatitis C virus genotype 1a, UniProt P27958, C1454S/C1711G)
- PROTOCOL: Recombinant HCV NS3/4A protease complex FRET peptide assay (strain not stated)
- Type: biochemical
- CONDITION DETAILS: IC50, separated isomers of Compound 97; strain not stated
pIC50: −log10 of the molar value.
MEASURED METRIC: pIC50

{"columns": ["COMPOUND", "READOUT VALUE"],
 "data": [
  ["C=CC1CC1(NC(=O)OC(C)(C)C)C(=O)N1C[C@H](Oc2cc(-c3ccccc3)nc3cc(OC)ccc23)CC1C(=O)N[C@]1(C(=O)NS(=O)(=O)C2CC2)C[C@H]1C=C (stereo partly drawn) [higher RF isomer]", 6.60],
  ["C=CC1CC1(NC(=O)OC(C)(C)C)C(=O)N1C[C@H](Oc2cc(-c3ccccc3)nc3cc(OC)ccc23)CC1C(=O)N[C@]1(C(=O)NS(=O)(=O)C2CC2)C[C@H]1C=C (stereo partly drawn) [lower RF isomer]", 7.62]
]}
